Just for reference, PubChem BioAssay (NCI) is where these values come from.

System: NCI-H460 lung
Assay: NCI-60 one-dose screen, 48 h (100 = growth as untreated, 0 = no growth, -100 = all killed)
Details: 10 µM unless noted
The panel holds about 83,000 compounds, 20% with a hit somewhere; the sample as a whole holds those more often. Activity calls are given as the source filed them. How the source made its calls: active means growth percent below 10; inactive means the rest.
A collection of molecules and their measured growth
readout: growth

# molecule, target entity, reading
rows = [
    ("O=C(Nc1ccc(Oc2ccc(F)cc2)c(Cl)c1)c1cccnn1", "NCI-H460 lung", "76.8% (inactive)"),
    ("CCN(CC)c1ccc(/C=C/c2ccc3cc(C)ccc3[n+]2CC)cc1", "NCI-H460 lung", "-48.4% (active)"),
    ("COc1ccc(C2CC(c3ccc4ccccc4c3)=NN2c2nc(O)c(C3=c4cc(OC)ccc4=NC3=O)s2)cc1 (configuration not stated)", "NCI-H460 lung", "-39.8% (active)"),
    ("COCCCNc1nc(NC(=O)c2cc(OC)cc(OC)c2)cc(-c2cccnc2)n1", "NCI-H460 lung", "95.2% (inactive)"),
    ("CC1Cc2c(Cl)ncnc2N(C)c2ccccc21 (configuration not stated)", "NCI-H460 lung", "21.2% (inactive)"),
    ("O=c1cc(-c2ccccc2)oc2cc(OCc3cn(Cc4ccc(F)cc4)nn3)cc(O)c12", "NCI-H460 lung", "71.4% [100 µM] (inactive)"),
    ("C=C(CC(=O)OC)C(C)=O", "NCI-H460 lung", "111% (inactive)"),
    ("NS(=O)(=O)c1ccc(CCN2C(=O)/C(=C\\c3ccccc3)C=C2c2ccc(Cl)cc2)cc1", "NCI-H460 lung", "99.3% (inactive)"),
    ("N#C/C(C(=O)c1ccccc1)=C1/C(=O)Nc2ccccc21", "NCI-H460 lung", "106% (inactive)"),
    ("O=C(CSc1nc2ccc([N+](=O)[O-])cc2[nH]1)Nc1ccc(F)c(Cl)c1", "NCI-H460 lung", "11.1% (inactive)"),
    ("CCN(CC)CCCNCc1cc(-c2ccccc2)nc2ccccc12", "NCI-H460 lung", "105% (inactive)"),
    ("COc1c(B(O)O)cccc1-c1nc2ccc3[nH]ncc3c2c2c1CCC2", "NCI-H460 lung", "47.9% (inactive)"),
    ("CCCCCn1sc(=O)n(Cc2ccc(CNC(=O)OCc3ccc4cccc(O)c4n3)cc2)c1=O", "NCI-H460 lung", "6.42% (active)"),
    ("CCCCOC(=O)c1cccc([N+](=O)[O-])c1", "NCI-H460 lung", "107% (inactive)"),
    ("O=C1/C(=C/c2ccc(OCc3ccccc3)cc2)Oc2cc(OCCN3CCCCC3)ccc21", "NCI-H460 lung", "70.3% (inactive)"),
    ("C=C(C)[C@@H]1CC[C@]2(C)[C@H](CC=C3[C@@H]4[C@@H](C)[C@H](C)CC[C@]4(C(N)=O)CC[C@]32C)[C@@]1(C)CCC#N", "NCI-H460 lung", "-38.4% [100 µM] (active)"),
    ("O=C(NNc1ccc(-c2ccccc2)nn1)c1ccc(F)cc1", "NCI-H460 lung", "99.1% (inactive)"),
    ("C=CCCC1(C)NC(=O)NC1=O (configuration not stated)", "NCI-H460 lung", "104% (inactive)"),
    ("CC1Cc2c(Cl)ncnc2N(C)c2ccc(O)cc21 (configuration not stated)", "NCI-H460 lung", "84.3% (inactive)"),
    ("COc1cc2c(c(OC)c1)C1c3cc(OC)ccc3NC(=O)N1CC2 (configuration not stated)", "NCI-H460 lung", "79.2% (inactive)"),
    ("O=C1NC(=O)c2cc([N+](=O)[O-])cc3cccc1c23", "NCI-H460 lung", "98.5% (inactive)"),
    ("COc1ccc2c(c1)C(C)Cc1c(Cl)nc(C)nc1N2C (configuration not stated)", "NCI-H460 lung", "12.3% (inactive)"),
]
